SYSTEM UNDER TEST: GST-Co-NF-kB (Capsaspora owczarzaki, UniProt F1ARL5 200-546)
Sequence: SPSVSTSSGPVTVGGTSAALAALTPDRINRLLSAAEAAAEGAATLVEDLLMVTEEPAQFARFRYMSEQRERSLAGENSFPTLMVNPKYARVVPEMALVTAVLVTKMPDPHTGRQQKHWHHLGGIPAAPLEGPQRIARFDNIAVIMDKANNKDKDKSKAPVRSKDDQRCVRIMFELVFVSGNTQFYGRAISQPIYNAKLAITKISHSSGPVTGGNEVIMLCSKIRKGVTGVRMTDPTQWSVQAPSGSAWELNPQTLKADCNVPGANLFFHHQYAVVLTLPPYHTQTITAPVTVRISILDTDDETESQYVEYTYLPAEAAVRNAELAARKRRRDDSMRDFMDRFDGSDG
TEST NAME: protein-binding microarray (PBM); PBM: ~300 nM protein, 6 mM HEPES pH 7.8, 80 mM KCl, 0.5 mM EDTA, 0.5 mM EGTA, 6% glycerol, 35 ng/ul poly-dIdC, 1% milk, 1 h, room temperature; Ap Aiptasia and Nv Nematostella (sea anemones) / Co Capsaspora / Aq Amphimedon (sponge) / Dm Drosophila / Hu human; RHD is the Rel homology domain; high values mean tight binding
CONDITION: dsDNA, one strand shown
Decision: binding signal beneath 5 z-score gives Criterion met; binding signal meeting or exceeding 5 z-score gives Criterion not met.

Answered examples (2):
• CCGATTAACATCAGGGGATACCCTGATGTTAATCGGGTCTTGATTCGCTTGACGCTGCTG = Criterion met
• CCGATTAACATCAGGCATTCCCCTGATGTTAATCGGGTCTTGATTCGCTTGACGCTGCTG = Criterion met

Is the reported binding signal for "CCGATTAACATCAAAATCCCCCTTGATGTTAATCGGGTCTTGATTCGCTTGACGCTGCTG" strictly below 5 z-score? Criterion not met

For "CCGATTAACATCAATTTACCCCCTGATGTTAATCGGGTCTTGATTCGCTTGACGCTGCTG" , is the recorded binding signal below the cut-off of 5 z-score? Criterion not met

# check: binding signal < 5 z-score for "CCGATTAACATCACAATTTCCCCTGATGTTAATCGGGTCTTGATTCGCTTGACGCTGCTG" Criterion not met

Quick check: binding signal of "CCGATTAACATCAGGGTTCCCCATGATGTTAATCGGGTCTTGATTCGCTTGACGCTGCTG" under 5 z-score? Criterion not met

Please state whether binding signal is below 5 z-score for "CCGATTAACATCAGACATTCCCATGATGTTAATCGGGTCTTGATTCGCTTGACGCTGCTG" Criterion met

Below 5 z-score on binding signal? Entry "CCGATTAACATCAGGGGGTGGAATGATGTTAATCGGGTCTTGATTCGCTTGACGCTGCTG" Criterion met

Bench note: check whether "CCGATTAACATCAGGGGGATGGATGATGTTAATCGGGTCTTGATTCGCTTGACGCTGCTG" shows binding signal below 5 z-score Criterion met

Data provenance: paper PMC5700166
